Experiment: qHTS of pediatric cancer cell lines to identify multiple opportunities for drug repurposing: Primary screen for Rh18 cells (AID 1347102); further: nearly all actives have a fitted effect of over 65% in size
Conditions: Rh18 rhabdomyosarcoma viability, CellTiter-Glo luminescence, 48 h; series mostly up to 46 µM
Procedure: Drug repurposing or repositioning has been offered as a strategy for drug development in oncology programs. […] [1] Shen, M et al. Quantitative high-throughput phenotypic screening of pediatric cancer cell lines identifies multiple opportunities for drug repurposing. […] Cells were assayed in growth media at a density of 500-1,000 cells/well. […] After a 15 min incubation at room temperature, samples were analyzed for luminescence intensity using a ViewLux High-throughput CCD imager equipped with clear filters.
Records with an inconclusive call do not appear. Activity calls are given as the source filed them. The call rests on the fitted dose curve; in most records, active means well fitted cell-killing curve with a large enough effect; inconclusive means small, poorly fitted or top-dose-only effect; inactive means flat fitted curve, though single readings scatter.
// classify into active, inactive

A selection of reference data follows.
MOLECULE	CLASS LABEL
COc1cc2ncn(-c3cc(OCc4ccccc4S(C)(=O)=O)c(C#N)s3)c2cc1OC	inactive
O=C(O)C1=CO[C@@H](O[C@@H]2O[C@H](CO)[C@H](O)[C@H](O)[C@H]2O)[C@@H]2C(CO)=CC[C@H]12	inactive
CN(C)CCOc1ccc(-c2nc(-c3ccc4c(c3)CCC4=NO)c(-c3ccncc3)[nH]2)cc1	active
O=C(O)CCNc1cc(N2CCc3ccccc3CC2)nc(-c2ccccn2)n1	inactive
CC1(C)C(N(O)C(=O)Nc2ccc(Cl)cc2)N(c2ccc(Cl)cc2)C(=O)N1CC(=O)NN=CC=Cc1ccc([N+](=O)[O-])o1 (stereo not drawn)	active
COc1ccc2nc3cc(Cl)ccc3c(Nc3cc(CN4CCCC4)c(O)c(CN4CCCC4)c3)c2n1	inactive
CNC(=O)c1ccc2c(C(=Nc3cccc(CN(C)C)c3)c3ccccc3)c(O)[nH]c2c1	inactive
Cc1ccc(C(=O)N(CCCN)[C@@H](c2oc3cc(Cl)ccc3c(=O)c2Cc2ccccc2)C(C)C)cc1	active
C=C1[C@H](n2cnc3c(=O)[nH]c(N)nc32)C[C@H](O)[C@H]1CO	inactive
CC[C@H](C=C[C@@H](C)[C@H]1CC[C@H]2[C@@H]3CC=C4C[C@@H](O)CC[C@]4(C)[C@@H]3CC[C@]12C)C(C)C	inactive

Answer briefly: the call reported for `CC1(C)[C@H]2CC[C@]3(C)[C@@H](C(=O)C=C4[C@@H]5C[C@@](C)(C(=O)O)CC[C@]5(C)CC[C@]43C)[C@@]2(C)CC[C@@H]1O` in this assay. inactive

// return assay outcome for `NS(=O)(=O)c1ccc(Nc2nc(OCC3CCCCC3)c3[nH]cnc3n2)cc1` inactive

For COc1ccnc(CS(=O)c2nc3ccc(OC(F)F)cc3[nH]2)c1OC (stereo not drawn) , what call appears in the results of this test? inactive

meta.source: PubChem BioAssay (NCATS)
